target.entity: recombinant human kinase domain of TYK2 (Homo sapiens (Human))
Sequence (P29597 897-1176): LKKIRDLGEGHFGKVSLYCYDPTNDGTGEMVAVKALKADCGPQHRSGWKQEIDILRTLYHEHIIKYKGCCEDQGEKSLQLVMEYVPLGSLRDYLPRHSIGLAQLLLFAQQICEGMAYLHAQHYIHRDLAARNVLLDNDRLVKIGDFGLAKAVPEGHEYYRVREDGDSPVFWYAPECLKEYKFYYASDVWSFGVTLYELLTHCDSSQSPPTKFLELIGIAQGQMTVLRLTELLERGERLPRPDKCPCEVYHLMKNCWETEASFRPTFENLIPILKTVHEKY
assay.remarks: JAK Caliper enzyme assay at 1 mM ATP (TYK2);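 note: microfluidic mobility-shift readout of synthetic peptide phosphorylation by TYK2, tuned to 20–30% conversion at room temperature, reaction stopped with EDTA, DMSO-only wells as uninhibited baseline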
Type: biochemical
experimental.conditions: 1 mM ATP; read-out: IC50 (nM) TYK2
quantity: IC50

Before answering, review these 3 worked examples.
{"columns": ["structure.as.smiles", "observed.value"],
 "data": [
  ["Cn1cc(Nc2nccc(N3C[C@H]4CC[C@@H](C3)N4C3(CC#N)COC3)n2)cn1", "62 nM"],
  ["CCNC(=O)c1ccc(Nc2ncc(F)c(N3C[C@H]4CC[C@@H](C3)N4C(=O)OC(C)(C)C)n2)cc1C", "17 nM"],
  ["CNC(=O)c1ncc(Nc2nccc(N3C[C@H]4CC[C@@H](C3)N4C(=O)[C@@H]3CC3(F)F)n2)cc1F", "31 nM"]
]}

Now for a further compound.
I'm curious: which IC50 was measured for "O=C([C@@H]1CC1(F)F)N1[C@@H]2CC[C@H]1CN(c1ccnc(Nc3cnc(CCO)c(Cl)c3)n1)C2" tested on recombinant human kinase domain of TYK2 (Homo sapiens (Human))? 62 nM
